Reported GI50 values are given for each entry in this list.
- System: SF-539
- Assay comment: NCI tumour cell line growth inhibition, 48 h
Calls of active or inactive are those of the source. Cut-off read from the data, not from the text of the source: active = GI50 up to about 1.1 µM and inactive = higher.

Below, each entry is followed by its recorded GI50 result.
| Compound | Reported |
| --- | --- |
| COc1ccc(C2=C(N)c3c(OC)cccc3C2=O)cc1 | 15 µM (inactive) |
| Nc1[nH]c(=S)[nH]c(=O)c1/N=N/c1c(Br)cc(S(N)(=O)=O)cc1Br | > 100 µM (inactive) |
| O=C(N[C@H]1CCC[C@H]1C(=O)Nc1ccc(C(F)(F)F)cc1)OCc1ccccc1 | > 100 µM (inactive) |
| Cc1cc(=O)c2c(O)cc3c(c2o1)CC=C(COC1OC(COC2OC(CO)C(O)C(O)C2O)C(O)C(O)C1O)CO3 (stereo not given) | > 100 µM (inactive) |

Could you now consider this next compound?
Entry under test: CCC1(CC)C(=O)N(C(=O)c2cc(OC)c(OC)c(OC)c2)N(C(=O)c2cc(OC)c(OC)c(OC)c2)C1=O . Its GI50 was > 50 µM (inactive)

----------
- Test system: NCI-H23
- Assay comment: NCI tumour cell line growth inhibition, 48 h
The source made the active and inactive calls. Rule as the data show it: active = GI50 up to about 1.1 µM and inactive = higher.
Just give me one of these, please: active, inactive

These recorded examples may help you get a feel for the data.
| Compound | Cat |
| --- | --- |
| O=C1C2C3C=C4c5ccccc5N(c5ccccc5)C4([C@@H]2C(=O)N1c1ccc(F)cc1)[C@H]1C(=O)N(c2ccc(F)cc2)C(=O)[C@@H]31 (stereo partly specified) | inactive |
| CCCCCCCCCC(=O)Oc1cccc2onc(C)c12 | inactive |
| N#Cc1cccc2c1Nc1ccccc1S2 | inactive |

[in] Just curious, what result did N#C/C(=C\c1cccc(O)c1O)C(N)=O get here?
[out] inactive

[in] Just curious, what result did O=c1c2ccc(Cl)cc2oc2c(CNc3ccc(S(=O)(=O)Nc4ncccn4)cc3)cccc12 get here?
[out] inactive

[in] Just curious, what result did COc1ccc(C[C@H]2COC(=O)[C@@H]2Cc2cc(OC)c(OC)c(OC)c2)cc1OC get here?
[out] inactive

[in] Just curious, what result did COc1ccccc1NC(=O)NS(=O)(=O)c1ccccc1 get here?
[out] inactive

[in] Just curious, what result did CCCCCCCc1ccc(-c2nnc(/N=N/c3ccc(OCCCCC)cc3)s2)s1 get here?
[out] inactive

[in] Just curious, what result did CC1(Sc2ccccc2)CN(Cc2ccccc2)C1=O (stereo unspecified) get here?
[out] inactive

----------
- Test system: CCRF-CEM
- Assay comment: NCI tumour cell line growth inhibition, 48 h
Activity calls are given as the source filed them. Rule as the data show it: active = GI50 up to about 1.1 µM and inactive = higher.
Just give me one of these, please: True (active), False (inactive)

These recorded examples may help you get a feel for the data.
| Compound | Target under test | Cat |
| --- | --- | --- |
| CCOC(=O)C1C(c2ccc(Cl)cc2Cl)NC(c2ccc(C)cc2)C(C(=O)OC)S1(=O)=O (stereo unspecified) | CCRF-CEM | False |
| C=C(CN(C)C)C(=O)c1ccc(C(=O)C(=C)CN(C)C)cc1 | CCRF-CEM | False |
| CN(C(=O)c1ccc(OCCCC(=O)O)c(Cl)c1Cl)C1CCCC1 | CCRF-CEM | False |

Read the next record carefully.
[in] Just curious, what result did O=[N+]([O-])/C(C(Cl)=C(Cl)Cl)=C(\Nc1cccc2cccnc12)Sc1ccccc1 get here?
[out] False

----------
- Test system: Hs-578T
- Assay comment: NCI tumour cell line growth inhibition, 48 h
Activity calls are given as the source filed them. Cut-off read from the data, not from the text of the source: active = GI50 up to about 1.1 µM and inactive = higher.
Just give me one of these, please: y for active, n for inactive

These recorded examples may help you get a feel for the data.
| Compound | Target under test | Cat |
| --- | --- | --- |
| CC1(C)O[C@@H](CO)[C@H]([C@@]23OC[C@H]4OC(C)(C)OC4[C@@H]2OC(C)(C)O3)O1 (some centres not stated) | Hs-578T | n |
| COc1ccc(C(OC(=O)[C@H](O[Si](C)(C)C(C)(C)C)[C@@H](NC(=O)c2ccccc2)c2ccccc2)c2ccc(OC)cc2)cc1 | Hs-578T | n |
| NC[C@H]1Nc2ccccc2[C@@H](O)C1O (some centres not stated) | Hs-578T | n |
| CCOc1cc(NC(C)=O)ccc1C(=O)NN1C(=O)C(Cl)C1c1ccco1 (configuration not stated) | Hs-578T | n |
| CC(CCc1nc2ccccc2s1)(c1ccc(O)cc1)c1ccc(O)cc1 | Hs-578T | n |
| COc1cc(/C=C2\C(=O)N(Cc3ccccc3)C(c3ccccc3)S2(=O)=O)cc(OC)c1OC (configuration not stated) | Hs-578T | n |
| COc1ccc(C(=O)/C=C/c2ccc(OCC#N)cc2)cc1 | Hs-578T | n |
| N#C[C@@]12CCCC(=O)[C@@H]1[C@H]1CCC[C@H]12 | Hs-578T | n |
| COc1ccccc1Nc1nc(N)nc(N)c1N=O | Hs-578T | n |
| Cc1ccc2n(c1)cc(-c1ccc(/C=N/NC(=N)N/N=C/c3ccc(-c4cn5cc(C)ccc5[n+]4C)cc3)cc1)[n+]2C | Hs-578T | n |

[in] Just curious, what result did CN1CCN([C@H]2C[C@H]3[C@@H]4CC=C5C[C@@H](N6CCCC6)CC[C@]5(C)[C@H]4CC[C@]3(C)[C@H]2O)CC1 get here?
[out] n

[in] Just curious, what result did Cc1ccc(NC2=NCCO2)c2c1CCC2 get here?
[out] n

----------
Reported GI50 values are given for each entry in this list.
- Test system: DMS-273
- Assay comment: NCI tumour cell line growth inhibition, 48 h
Calls of active or inactive are those of the source. Cut-off read from the data, not from the text of the source: active = GI50 up to about 1.1 µM and inactive = higher.

Below, each entry is followed by its recorded GI50 result.
| Compound | GI50 |
| --- | --- |
| COc1ccc(C2C(C(=O)O)=C(COC(C)=O)Oc3cc4c(cc32)OCO4)cc1 (centres undefined) | > 100 µM (inactive) |
| CC12OOC(c3ccccc31)c1c2ccc2ccccc12 (centres undefined) | 8.69 µM (inactive) |
| COc1ccc2c(c1OC)C1=C(C2=O)c2cc3c(cc2CCN1)OCO3 | 24.2 µM (inactive) |

Could you now consider this next compound?
Measured GI50 (DMS-273), entry COc1cccc2c1C(=O)c1c(O)c3c(c(O)c1C2=O)C[C@@](O)(/C(C)=N\O)C[C@@H]3OC1CC(N)C(O)C(C)O1 (some centres undefined) : 0.454 µM (active)

----------
- System: T47D
- Assay comment: NCI tumour cell line growth inhibition, 48 h
Calls of active or inactive are those of the source. No stated cut-off is given here; in the data, active = GI50 up to about 1.1 µM and inactive = higher. Where a SMILES comes first, the peptide text is derived from it. The star is where a group is joined. Boc = CC(C)(C)OC(=O)*
Just give me one of these, please: active, inactive

| Compound | Cat |
| --- | --- |
| CC(=O)N1C(Nc2cnc3ccccc3c2)CCN1c1ccccc1 (configuration not stated) | inactive |
| OC(c1cccnc1)C(F)(F)c1nc2ccccc2o1 (configuration not stated) | inactive |
| COC(=O)c1ccc(NC(=O)O/N=C(\Cl)C(C)C)cc1 | inactive |
| O=C(NC/C(Cl)=C/Cl)Nc1c2ccccc2nc2ccccc12 | inactive |
| CC(C)(C)NCC(O)COc1cccc2[nH]c(C#N)cc12 (configuration not stated) | inactive |

[in] Just curious, what result did COC(=O)CNC(=O)C(Cc1ccccc1)NC(=O)C(CCSC)NC(=O)C(Cc1ccc(O)cc1)NC(=O)OC(C)(C)C (configuration not stated) (Boc-YMFG-OMe; configuration not given here) get here?
[out] inactive

[in] Just curious, what result did COC(=O)c1c(C#N)[nH]c(-c2ccsc2)c1C(=O)OC get here?
[out] inactive

[in] Just curious, what result did CSc1ccc(/C=C2\N=C(c3ccccc3)N(c3nc4cc(Cl)c(F)cc4s3)C2=O)cc1 get here?
[out] inactive

[in] Just curious, what result did Nc1ncc(N)c(NCC2(CO)CC(CCc3ccccc3)C2)n1 (configuration not stated) get here?
[out] active

----------
Reported GI50 values are given for each entry in this list.
- System: NCI-H226
- Assay comment: NCI tumour cell line growth inhibition, 48 h
Calls of active or inactive are those of the source. No stated cut-off is given here; in the data, active = GI50 up to about 1.1 µM and inactive = higher.

| Molecule | GI50 |
| --- | --- |
| COc1cc([C@@H]2c3cc4c(cc3[C@@H](NCCNCCO)[C@H]3COC(=O)[C@H]23)OCO4)cc(OC)c1O | 1.37 µM (inactive) |
| Cc1ccc(S(=O)(=O)N/N=C2/CC3CCC4CC2CC34)cc1 (stereo not given) | > 100 µM (inactive) |
| COc1ccc(Nc2nn3c(=O)c4c(C)c(C)sc4nc3s2)cc1 | 67.8 µM (inactive) |
| C=C/C(C)=C/[C@H](C)C(=O)C[C@H](O)CC1CC(=O)NC(=O)C1 | 41 µM (inactive) |
| O=NN(CCCl)C(=O)N[C@H]1CC[C@@H](C(=O)O)CC1 | > 100 µM (inactive) |

Measured GI50 (NCI-H226), entry CN1CCN(c2ccc3nc(-c4cc(O)c5c(nc(CO)n5C)c4O)[nH]c3n2)CC1 : 22.7 µM (inactive)

Measured GI50 (NCI-H226), entry Oc1c2cc(Br)cc1CCc1cc(Br)cc(c1O)CC2 : 16.3 µM (inactive)

Measured GI50 (NCI-H226), entry CN(C)N1C(=O)c2ccccc2NC1c1ccccc1 (stereo not given) : > 100 µM (inactive)

Measured GI50 (NCI-H226), entry COC(=O)c1c(C#N)[nH]c(-c2ccsc2)c1C(=O)OC : > 100 µM (inactive)

Measured GI50 (NCI-H226), entry C[N+](C)=c1nc(N2CCc3ccccc3C2)ss1.[O-][Cl+3]([O-])([O-])[O-] : > 100 µM (inactive)

Measured values drawn from ChEMBL document CHEMBL1201862 for this set.
